Where these numbers come from: patent US20210122826A1

// values below are reported MFI normalized to WT
- system_tested: T1, Human OLR1 (human, UniProt P78380 1-273)
- T1 construct: also called hOLR1
- method: flow, Jurkat, 100 nM Ab
No unit in the answer, only the number.

Below are worked cases with known answers.
binder | MFI normalized to WT
KM12.2.3 (antibody, human IgG1, V domains shown) VH: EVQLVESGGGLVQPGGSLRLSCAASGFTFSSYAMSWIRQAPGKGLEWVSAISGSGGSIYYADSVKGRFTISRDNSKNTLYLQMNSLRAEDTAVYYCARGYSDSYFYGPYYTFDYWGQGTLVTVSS VL: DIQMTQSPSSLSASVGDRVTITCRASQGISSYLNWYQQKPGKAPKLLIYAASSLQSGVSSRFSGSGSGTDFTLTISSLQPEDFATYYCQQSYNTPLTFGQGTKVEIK | 1.33
KW1.3.12 (antibody, human IgG1, V domains shown) VH: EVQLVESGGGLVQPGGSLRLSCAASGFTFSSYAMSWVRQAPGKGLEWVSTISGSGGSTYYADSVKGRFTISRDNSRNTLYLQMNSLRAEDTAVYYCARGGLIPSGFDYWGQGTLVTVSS VL: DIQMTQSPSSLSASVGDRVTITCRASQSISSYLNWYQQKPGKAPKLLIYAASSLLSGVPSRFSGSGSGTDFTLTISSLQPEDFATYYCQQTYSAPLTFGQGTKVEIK | 1.24
KW1.2.1 (antibody, V domains shown) VH: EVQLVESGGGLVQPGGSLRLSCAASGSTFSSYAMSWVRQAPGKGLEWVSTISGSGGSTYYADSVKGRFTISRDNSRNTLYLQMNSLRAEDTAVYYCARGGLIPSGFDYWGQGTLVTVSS VL: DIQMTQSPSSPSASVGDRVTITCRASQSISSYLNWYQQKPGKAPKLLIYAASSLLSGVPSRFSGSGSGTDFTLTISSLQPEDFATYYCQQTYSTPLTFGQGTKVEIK | 1.28

Now take the following binder into account.
I would be grateful if you could share the reported MFI normalized to WT for KW7.3.7 (antibody, V domains shown) VH: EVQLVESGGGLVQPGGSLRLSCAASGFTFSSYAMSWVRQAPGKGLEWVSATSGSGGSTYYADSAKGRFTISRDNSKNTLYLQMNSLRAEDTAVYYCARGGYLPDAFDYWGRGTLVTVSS VL: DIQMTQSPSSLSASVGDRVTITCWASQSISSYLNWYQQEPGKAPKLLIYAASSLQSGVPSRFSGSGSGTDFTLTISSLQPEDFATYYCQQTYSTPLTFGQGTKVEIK .
1.15
